src = patent US20160075790A1

Molecular target: T1, human CD40L, membrane-bound on cells (human, UniProt P29965 1-261)
T1 sequence: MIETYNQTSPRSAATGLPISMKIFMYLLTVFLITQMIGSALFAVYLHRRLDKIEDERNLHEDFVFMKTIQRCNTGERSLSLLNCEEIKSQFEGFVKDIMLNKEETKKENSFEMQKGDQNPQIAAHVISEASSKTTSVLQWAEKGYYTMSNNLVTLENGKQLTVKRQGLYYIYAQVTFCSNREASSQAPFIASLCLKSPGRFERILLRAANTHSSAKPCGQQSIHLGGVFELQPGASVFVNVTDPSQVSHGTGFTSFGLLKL
Experiment: cell-based or functional assay
metric.name: CHO-hCD40L-driven DC Activation IL-12 EC50 (µM)

Sample records with CHO-hCD40L-driven DC Activation IL-12 EC50:
BMS2h-719-202 (other) VH: EVQLLESGGGLVQPGGSLRLSCAASGFTFKKYEMMWVRQAPGKGLEWVSSISSDGSFTYYADSVKGRFTISRDNSKNTLYLQMNSLRAEDTAVYYCAEPFTEFDYWGHGTLVTVSS; 0.079
BMS2h-572-610 (other) VH: EVQLLESGGGLVQPGGSLRLSCAASGFTFNWQLMGWVRQAPGKGLEWVSGIEGPGDVTYYADSVKGRFTISRDNSKNTLYLQMNSLRAEDTAVYYCVKVGKDSKSDYRGQGTLVTVSS; 0.207
BMS2h-719-13 (other) VH: EVQLLESGGGLVQPGGSLRLSCAASGFTFKRYEMMWVRQAPGKGLEWVSSISSDGSFTYYADSVKGRFTISRDNTKNTLYLQMNSLRAEDTAVYYCADPFTELDYWGHGTLVTVSS; 0.219
BMS2h-719-12 (other) VH: EVQLLESGGGLVQPGGSLRLSCAASGFTFKRYEMMWVRQAPGKGLEWVSSISSDGSFTYYADSVKGRFTVSRDNSKNTLYLQMNSLRAEDTAVYYCADPFTEFDYWGQGTLVTVSS; 0.266
BMS2h-572-614 (other) VH: EVQLLESGGGLVQPGGSLRLSCAASGFTFNWQLMGWVRQAPGKGLEWVSGIEGPGDVTYYADSVKGRFTISRDNSKNTLYLQMNSLRAEDTAVYYCVKVGKDAKSDYRGQGTLVTVSS; 0.135

(I) BMS2h-116-1320 (other) VL: DIQMTQSPSSLSAYVGDRVTITCRASQPIGPDLLWYQQKPGKAPKLLIYQTSILRSGVPSRFSGSGSETDFTLTISNLQPEDFAKYYCQQYWAFPVTFGQGTKVVIKR
(II) BMS2h-719-2 (other) VH: EVQLLESGGGLVQPGGSLRLSCAASGFTFKRYEMMWVRQAPGKGLEWVSSISSDGSFTYYADSVKGRFTISRDNSKNTLYLQMNSLRAEDTAVYYCAEPFTEFDYWGHGTLVTVSS
Req: Field: lower recorded CHO-hCD40L-driven DC Activation IL-12 EC50 (choose I or II ) // output: label of the selected item
Resp: I
(I: 0.032 µM, II: 0.196 µM)
